FYI, the data here is from patent EP4603105A1.

Examples of compounds with documented pKd follow.
# target-desc: UniProtKB P01116
# Sequence (P01116 1-188 isoform P01116-2): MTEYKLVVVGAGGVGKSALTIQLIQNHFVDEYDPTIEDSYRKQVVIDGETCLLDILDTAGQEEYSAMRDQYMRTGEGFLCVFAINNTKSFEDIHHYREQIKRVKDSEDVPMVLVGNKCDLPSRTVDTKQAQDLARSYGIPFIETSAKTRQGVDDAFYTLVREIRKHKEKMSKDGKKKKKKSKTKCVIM
# protocol-summary: Binding to KRAS by surface plasmon resonance (SPR), dissociation constant KD
# measurement-conditions: Single Cycle Kinetics, 1:1 binding model
Where a SMILES comes first, the peptide text is derived from it. Bridges are numbered along the chain shown (N, C = ends). [ ]: non-standard residue; d: D form. hPhe(3-Cl-4-CF3) = N[C@@H](CCc1ccc(C(F)(F)F)c(Cl)c1)C(=O)O; NPrPhe(4-CF3) = CCCN[C@@H](Cc1ccc(C(F)(F)F)cc1)C(=O)O; NMeGly(cPent) = CN[C@H](C(=O)O)C1CCCC1; Pro(4,4-F2) = O=C(O)[C@@H]1CC(F)(F)CN1; NMeD = CN[C@@H](CC(=O)O)C(=O)O; NMeL = CN[C@@H](CC(C)C)C(=O)O; Ac5c = NC1(C(=O)O)CCCC1; Aze = O=C(O)[C@@H]1CCN1; Sar = CNCC(=O)O
Please express pKd as -log10 of the molar concentration.

These solved cases illustrate the format of a correct answer.
CCCOC[C@H]1C(=O)N[C@@H]([C@@H](C)CC)C(=O)N(C)CC(=O)N(C)[C@H]2C/C=C\CCN(C2=O)[C@@H](Cc2ccc(C)cc2)C(=O)N(C)CC(=O)N[C@@H](CCc2cc(F)c(C(F)(F)F)c(F)c2)C(=O)N2C[C@H](OCC)C[C@H]2C(=O)NC2(CC(C)(C)C2)C(=O)N(C)[C@@H](C2CCCC2)C(=O)N(C)[C@H](C(=O)N(C)CC)CC(=O)N1C: 9.77
CCCN1C(=O)CN(C)C(=O)[C@@H]2CCN2C(=O)[C@H]([C@@H](C)CC)NC(=O)[C@H](CC(C)C)N(C)C(=O)C[C@@H](C(=O)N(C)C)N(C)C(=O)[C@H](C2CCCC2)N(C)C(=O)C2(CCCC2)NC(=O)[C@@H]2CC(F)(F)CN2C(=O)[C@H](CCc2ccc(C(F)(F)F)c(Cl)c2)NC(=O)CN(C)C(=O)[C@@H]1Cc1ccc(C(F)(F)F)cc1 [PP0431] ([NMeL]I[Aze][Sar][NPrPhe(4-CF3)][Sar][hPhe(3-Cl-4-CF3)][Pro(4,4-F2)][Ac5c][NMeGly(cPent)][NMeD]-NMe2; lactam N-11): 9.46
CCC[C@H]1C(=O)N[C@@H]([C@@H](C)CC)C(=O)N(C)CC(=O)N(C)[C@H]2C/C=C\CCN(C2=O)[C@@H](CC2CCCCC2)C(=O)N(C)CC(=O)N[C@@H](CCc2cc(F)c(C(F)(F)F)c(F)c2)C(=O)N2C[C@H](OCC)C[C@H]2C(=O)NC2(CCC2)C(=O)N(C)[C@@H](C2CCCC2)C(=O)N(C)[C@H](C(=O)N(C)C)CC(=O)N1C: 9.82

Problem: In one line, give reported pKd of the entry CC[C@H](C)[C@@H]1NC(=O)[C@H](CC)N(C)C(=O)C[C@@H](C(=O)N(C)C)N(C)C(=O)[C@H](C2CCCC2)N(C)C(=O)C2(CCC2)NC(=O)[C@@H]2CCN2C(=O)[C@H](CCc2cc(F)c(C(F)(F)F)c(F)c2)NC(=O)CN(C)C(=O)[C@H](Cc2ccc(C(F)(F)F)cc2)N2CC/C=C\C[C@@H](C2=O)N(C)C(=O)CN(C)C1=O .
Solution: 9.37

Problem: In one line, give reported pKd of the entry CCO[C@@H]1C[C@H]2C(=O)NC3(CCC3)C(=O)N(C)[C@@H](C3CCCC3)C(=O)N(C)[C@H](C(=O)N(C)C)CC(=O)N(C)[C@@H](CC(C)C)C(=O)N[C@@H]([C@@H](C)CC)C(=O)N(C)CC(=O)N(C)[C@H]3CCCCCN(C3=O)[C@@H](Cc3ccc(C(F)(F)F)cc3)C(=O)N(C)CC(=O)N[C@@H](CCc3cc(F)c(C(F)(F)F)c(F)c3)C(=O)N2C1 .
Solution: 9.12

###

# Test system: human lung cancer strain NCI-H441
# Type: cell-based
metric: IC50 (nM)
The reply should contain only the number, in nM.

These solved cases illustrate the format of a correct answer.
CCO[C@@H]1C[C@H]2C(=O)NC3(CC(C)(C)C3)C(=O)N(C)[C@@H](C3CCCC3)C(=O)N(C)[C@H](C(=O)N(C)C)CC(=O)N(C)[C@@H]([C@@H](C)OC)C(=O)N[C@@H]([C@@H](C)CC)C(=O)N(C3CC3)CC(=O)N(C)[C@H]3C/C=C\CCN(C3=O)[C@@H](Cc3ccc(C)cc3)C(=O)N(C)CC(=O)N[C@@H](CCc3ccc(C(F)(F)F)c(OC)c3)C(=O)N2C1 [PP3210]: 19.1
CCO[C@@H]1C[C@H]2C(=O)NC3(CC(C)(C)C3)C(=O)N(C)[C@@H](C3CCCC3)C(=O)N(C)[C@H](C(=O)N(C)C)CC(=O)N(C)[C@@H]([C@@H](C)OC)C(=O)N[C@@H]([C@@H](C)CC)C(=O)N(C)CC(=O)N(C)[C@H]3C/C=C\CCN(C3=O)[C@@H](Cc3ccc(C)cc3)C(=O)N(C)CC(=O)N[C@@H](CCc3cc(F)c(C(F)(F)F)c(F)c3)C(=O)N2C1 [PP3208]: 2.8

Here is another molecule to look at.
Problem: In one line, give reported IC50 of the entry CCO[C@@H]1C[C@H]2C(=O)NC3(CC(C)(C)C3)C(=O)N(C)[C@@H](C(CC)CC)C(=O)N(C)[C@H](C(=O)N(C)C)CC(=O)N(C)[C@@H](COC)C(=O)N[C@@H]([C@@H](C)CC)C(=O)N(C)CC(=O)N(C)[C@H]3C/C=C\CCN(C3=O)[C@@H](Cc3ccc(C(F)(F)F)cc3)C(=O)N(C)CC(=O)N[C@@H](CCc3ccc(C(F)(F)F)c(Cl)c3)C(=O)N2C1 [PP2126] .
Solution: 13.4

###

# Test system: human lung cancer strain NCI-H441
# Assay type: cell-based
# Description: A test compound was dispensed into a U-bottom 384-well plate as 40 nL serially diluted dimethyl sulfoxide solutions using a liquid handler Echo (LABCYTE). […] This cell suspension was dispensed in an amount of 40 µL per well into a plate containing the test compound, and cultured at 37°C in a 5% carbon dioxide gas incubator. Four days later, 20 µL of CellTiter-Glo (registered trademark) (Promega) was added to each well and […] was measured. […]
Where a SMILES comes first, the peptide text is derived from it. Bridges are numbered along the chain shown (N, C = ends). [ ]: non-standard residue; d: D form. The star is where a group is joined. hPhe(3-Cl-4-CF3) = N[C@@H](CCc1ccc(C(F)(F)F)c(Cl)c1)C(=O)O; NPrPhe(4-CF3) = CCCN[C@@H](Cc1ccc(C(F)(F)F)cc1)C(=O)O; NMeGly(cPent) = CN[C@H](C(=O)O)C1CCCC1; NMeD = CN[C@@H](CC(=O)O)C(=O)O; NMeL = CN[C@@H](CC(C)C)C(=O)O; Morpholide = C1CN(*)CCO1; Ac5c = NC1(C(=O)O)CCCC1; NEtG = CCNCC(=O)O; Sar = CNCC(=O)O
metric: pIC50
Please express pIC50 as -log10 of the molar concentration.

These solved cases illustrate the format of a correct answer.
CCCN(C)C(=O)[C@@H]1CC(=O)N(C)[C@@H](CC(F)(F)F)C(=O)N[C@@H]([C@@H](C)CC)C(=O)N(C)CC(=O)N(C)[C@H]2C/C=C\CCN(C2=O)[C@@H](Cc2ccc(C(F)(F)F)cc2)C(=O)N(C)CC(=O)N[C@@H](CCc2cc(F)c(C(F)(F)F)c(F)c2)C(=O)N2C[C@H](OCC)C[C@H]2C(=O)NC2(CCC2)C(=O)N(C)[C@@H](C2CCCC2)C(=O)N1C: 8.31
CCO[C@@H]1C[C@H]2C(=O)NC3(CCC3)C(=O)N(C)[C@@H](C3CCCC3)C(=O)N(C)[C@H](C(=O)N3CCOCC3)CC(=O)N(C)[C@@H](CC(C)C)C(=O)N[C@@H]([C@@H](C)CC)C(=O)N(C)CC(=O)N(C)[C@H]3CCCCCN(C3=O)[C@@H](Cc3ccc(F)c(C)c3)C(=O)N(C)CC(=O)N[C@@H](CCc3cc(F)c(C(F)(F)F)c(F)c3)C(=O)N2C1: 7.01
CCCC[C@H]1C(=O)N[C@@H]([C@@H](C)CC)C(=O)N(C)CC(=O)N(C)[C@H]2C/C=C\CCN(C2=O)[C@@H](Cc2ccc(C)cc2)C(=O)N(C)CC(=O)N[C@@H](CCc2cc(F)c(C(F)(F)F)c(F)c2)C(=O)N2C[C@H](OCC)C[C@H]2C(=O)NC2(CC(C)(C)C2)C(=O)N(C)[C@@H](C2CCCC2)C(=O)N(C)[C@H](C(=O)N(C)C)CC(=O)N1C: 8.10

Problem: In one line, give reported pIC50 of the entry CCO[C@@H]1C[C@H]2C(=O)N(C)C3(CCC3)C(=O)N(C)[C@@H](C3CCCC3)C(=O)N(C)[C@H](C(=O)N(C)C)CC(=O)N(C)[C@@H](CC)C(=O)N[C@@H]([C@@H](C)CC)C(=O)N3CCC[C@H]3C(=O)N(C)[C@H]3C/C=C\CCN(C3=O)[C@@H](Cc3ccc(C)cc3)C(=O)N(C)CC(=O)N[C@@H](CCc3cc(F)c(C(F)(F)F)c(F)c3)C(=O)N2C1 .
Solution: 8.16

Problem: In one line, give reported pIC50 of the entry CCCN1C(=O)CN(CC)C(=O)CNC(=O)[C@H]([C@@H](C)CC)NC(=O)[C@H](CC(C)C)N(C)C(=O)C[C@@H](C(=O)N2CCOCC2)N(C)C(=O)[C@H](C2CCCC2)N(C)C(=O)C2(CCCC2)NC(=O)[C@@H]2CCCN2C(=O)[C@H](CCc2ccc(C(F)(F)F)c(Cl)c2)NC(=O)CN(C)C(=O)[C@@H]1Cc1ccc(C(F)(F)F)cc1 [PP1968] ([NMeL]IG[NEtG][NPrPhe(4-CF3)][Sar][hPhe(3-Cl-4-CF3)]P[Ac5c][NMeGly(cPent)][NMeD]-Morpholide; lactam N-11) .
Solution: 7.87
